# Test system: MCF-7 cells
# assayRemarks: Cell proliferation assay in MCF-7 breast cancer cells (MTT)
# Format: cell-based, human
# details: Homo sapiens, MCF7, 168 h; MCF-7 cells, 7 days of culture, MTT
parameterMeasured: pIC50
Answers are plain numbers, as −log10 of the molar value.

The compound listed as C=C1/C(=C\C=C2/CCC[C@]3(C)[C@@H]([C@H](C)CCCC(C)(C)O)CC[C@@H]23)C[C@@H](O)C[C@@H]1O [1,25(OH)2 vit. D3, 1,25-dihydroxyvitamin D3, reference compound] has a reported pIC50 of 7.40

Where do these numbers come from? They come from patent EP0980354B1.
